# Tested on: SUDHL10
# test.summary: Induction of cytotoxicity (Assay 6), SUDHL10
# recorded.conditions: read-out: Cytotox SUDHL10 [M] (median) IC50, CellTiter-Glo, 5 hours, SUDHL10
# reported IC50; entries follow
// note: answer is a bare numeric in M

>>> endpoint_result("CCc1c2c(nn1C)C(CCC1CCOCC1)N(C)S(=O)(=O)CCCn1c(C(=O)O)c(CCCOc3cccc4cc(F)ccc34)c3ccc(Cl)c-2c31 (single isomer, unassigned; enantiomer 1) [Example 61]")
"4.9e-08"
>>> endpoint_result("Cc1c2c(nn1C)CN(CCN1CCOCC1)S(=O)(=O)CCCn1c(C(=O)O)c(CCCOc3cccc4ccccc34)c3cccc-2c31 (single isomer, unassigned; enantiomer 1) [Example 2]")
"9.8e-06"
>>> endpoint_result("Cc1c2c(nn1C)CN(C1CC1)S(=O)(=O)CCCn1c(C(=O)O)c(CCCOc3cccc4cc(F)ccc34)c3ccc(Cl)c-2c31 (racemic) [Example 41]")
"1.7e-06"
>>> endpoint_result("CCc1c2c(nn1C)CN(CC)S(=O)(=O)CCCn1c(C(=O)O)c(CCCOc3cccc4cc(F)ccc34)c3ccc(Cl)c-2c31 (single isomer, unassigned; enantiomer 1)")
"1.4e-07"

Next item in the queue.
Any idea what IC50 was measured for Cc1c2c(nn1C)CN(C)S(=O)(=O)CCCn1c(C(=O)O)c(CCCOc3cccc4ccccc34)c3cccc-2c31 (single isomer, unassigned; enantiomer 2) [Example 12] ?
2.7e-05

* * *

# tested.system: SUDHL5
# test.summary: Induction of caspase-3/7 activity (Assay 4), SUDHL5
# Format: cell-based
# recorded.conditions: caspase-3/7 induction, 3 hours, median
attribute.measured: log10 EC50 (log10 of the value in nM)
# log10 transformed; quantity=EC50; unit=nM

The examples below pair each entry with its known result.
>>> endpoint_result("CCc1c2c(nn1C)C(CCN1CCOCC1)N(C)S(=O)(=O)CCCn1c(C(=O)O)c(CCCOc3cccc4cc(F)ccc34)c3ccc(Cl)c-2c31 (single isomer, unassigned) [Example 72]")
1.18
>>> endpoint_result("Cc1c2c(nn1C)CN(C1CC1)S(=O)(=O)CCCn1c(C(=O)O)c(CCCOc3cccc4cc(F)ccc34)c3ccc(Cl)c-2c31 (single isomer, unassigned; enantiomer 2) [Example 43]")
3.79
>>> endpoint_result("Cc1c2c(nn1C)CNS(=O)(=O)CCCn1c(C(=O)O)c(CCCOc3cccc4cc(F)ccc34)c3ccc(Cl)c-2c31 (single isomer, unassigned; enantiomer 2) [Example 52]")
4.43
>>> endpoint_result("Cc1c2c(nn1C)CN(CCN1CCOCC1)S(=O)(=O)CCCn1c(C(=O)O)c(CCCOc3cccc4ccccc34)c3cccc-2c31 (single isomer, unassigned; enantiomer 1) [Example 2]")
3.59

What log10 EC50 value was documented for this compound, CCc1c2c(nn1C)C(CCC1CCOCC1)N(C)S(=O)(=O)CCCn1c(C(=O)O)c(CCCOc3cccc4cc(F)ccc34)c3ccc(Cl)c-2c31 (single isomer, unassigned; enantiomer 3) [Example 63] ?
1.60

* * *

# Tested on: AMO-1
# test.summary: Antiproliferation assay (Assay 7), AMO-1
# Assay type: cell-based
# recorded.conditions: CellTiter-Glo, 72 hours, several values per example, listed as 08, read-out: Antiproli AMO-1 [M] IC50
# Experimental: Assessment of the Anti-Proliferative Effect of Compounds in Different Cell Lines The impact of compounds on the proliferation of different cell lines was assessed using the CellTiter-Glo® Luminescent Cell Viability reagent from Promega (G7573). In parallel, cells were plated in a reference (day 0) plate for time zero determination. Rim wells were excluded. […] After 72 hours incubation, the treated plates were measured in the same way as the day 0 plate mentioned above.
attribute.measured: IC50 (M)
Express the result in M but write the number alone.

// lookup IC50 for CCc1c2c(nn1C)CN(C)S(=O)(=O)CCCn1c(C(=O)O)c(CCCOc3cccc4cc(F)ccc34)c3ccc(F)c-2c31 (single isomer, unassigned; enantiomer 1) [Example 8]
1.5e-06

* * *

# tested.system: MCL-1 (Homo sapiens (Human), UniProt Q07820, K194A/K197A/R201A)
# Sequence (Q07820 whole entry K194A/K197A/R201A, looked up): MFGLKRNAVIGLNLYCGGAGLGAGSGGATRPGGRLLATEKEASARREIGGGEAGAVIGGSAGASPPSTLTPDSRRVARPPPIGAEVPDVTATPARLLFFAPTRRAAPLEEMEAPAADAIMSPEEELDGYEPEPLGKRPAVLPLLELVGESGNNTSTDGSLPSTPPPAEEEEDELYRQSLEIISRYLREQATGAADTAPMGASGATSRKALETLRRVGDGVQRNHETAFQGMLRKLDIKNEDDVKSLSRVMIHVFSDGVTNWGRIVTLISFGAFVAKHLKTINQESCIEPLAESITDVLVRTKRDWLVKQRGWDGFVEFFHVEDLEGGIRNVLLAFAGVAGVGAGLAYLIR
# test.summary: Protein-protein interaction assay MCL-1/Noxa BH3 peptide (MCL-1 assay, TR-FRET)
# Type: binding
# recorded.conditions: MBP-MCL-1 / Noxa BH3 peptide, median
We'd kindly ask you to apply these IC50 classes: group 1 = under 1 nM, group 2 = from 1 nM up to 6 nM, group 3 = 6 nM and over

>>> assigned_label("Cc1c2c(nn1C)C(CCN1CCOCC1)N(C)S(=O)(=O)CCCn1c(C(=O)O)c(CCCOc3cccc4ccccc34)c3cccc-2c31 (single isomer, unassigned; enantiomer 1) [Example 45]")
"group 3"
>>> assigned_label("CCc1c2c(nn1C)CN(CCN1CCCCC1)S(=O)(=O)CCCn1c(C(=O)O)c(CCCOc3cccc4ccccc34)c3cccc-2c31 (racemic)")
"group 3"
>>> assigned_label("CCc1c2c(nn1C)CN(C)S(=O)(=O)CCCn1c(C(=O)O)c(CCCOc3cccc4ccccc34)c3ccc(Cl)c-2c31")
"group 2"
>>> assigned_label("Cc1c2c(nn1C)C(CCN1CCOCC1)N(C)S(=O)(=O)CCCn1c(C(=O)O)c(CCCOc3cccc4ccccc34)c3cccc-2c31 (single isomer, unassigned; enantiomer 2) [Example 46]")
"group 1"
>>> assigned_label("Cc1c2c(nn1C)CNS(=O)(=O)CCCn1c(C(=O)O)c(CCCOc3cccc4cc(F)ccc34)c3ccc(Cl)c-2c31 (racemic) [Example 50]")
"group 1"

// bin(item) where item = Cc1c2c(nn1C)CNS(=O)(=O)CCCn1c(C(=O)O)c(CCCOc3cccc4cc(F)ccc34)c3ccc(Cl)c-2c31 (single isomer, unassigned; enantiomer 1) [Example 51]
group 1

Looking at Cc1c2c(nn1C)CN(C)S(=O)(=O)CCCn1c(C(=O)O)c(CCCOc3cccc4c3CCCC4)c3ccc(F)c-2c31 (racemic) , which class would you pick?
group 2

Looking at CCc1c2c(nn1C)CN(C)S(=O)(=O)CCCn1c(C(=O)O)c(CCCOc3cc(C)c(Cl)c(C)c3)c3ccc(Cl)c-2c31 , which class would you pick?
group 2

# bin lookup: classify CCc1c2c(nn1C)CN(CCCN1CCCC1)S(=O)(=O)CCCn1c(C(=O)O)c(CCCOc3cccc4ccccc34)c3cccc-2c31 (racemic) by its IC50
group 2

# bin label for Cc1c2c(nn1C)C(CCN1CCOCC1)N(C)S(=O)(=O)CCCn1c(C(=O)O)c(CCCOc3cccc4cc(F)ccc34)c3ccc(Cl)c-2c31 (single isomer, unassigned; enantiomer 2) [Example 67]
group 1

The entry to classify is CCc1c2c(nn1C)CN(CCN1CCOCC1)S(=O)(=O)CCCn1c(C(=O)O)c(CCCOc3cccc4cc(F)ccc34)c3ccc(Cl)c-2c31 ; which class holds it?
group 3

* * *

# Test system: SUDHL5
# test.summary: Induction of caspase-3/7 activity (Assay 4), SUDHL5
# Type: cell-based
# recorded.conditions: caspase-3/7 induction, 3 hours, median
Readings of EC50 for the listed molecules
I only need the number, in nM, no unit after it.

Look over these answered cases.
>>> endpoint_result("CCc1c2c(nn1C)CN(CC)S(=O)(=O)CCCn1c(C(=O)O)c(CCCOc3cccc4cc(F)ccc34)c3ccc(Cl)c-2c31 (single isomer, unassigned; enantiomer 1) [Example 57]")
120
>>> endpoint_result("CCNCC.CCc1c2c(nn1C)C(CCN1CCOCC1)N(C)S(=O)(=O)CCCn1c(C(=O)O)c(CCCOc3cccc4cc(F)ccc34)c3ccc(Cl)c-2c31 (single isomer, unassigned; enantiomer 2) [Example 76]")
6.5
>>> endpoint_result("CCc1c2c(nn1C)C(N1CCOCC1)CCN(C)S(=O)(=O)CCCn1c(C(=O)O)c(CCCOc3cccc4cc(F)ccc34)c3ccc(Cl)c-2c31 (single isomer, unassigned; enantiomer 2) [Example 71]")
71

SUDHL5 / EC50 / CCc1c2c(nn1C)C(CCC1CCOCC1)N(C)S(=O)(=O)CCCn1c(C(=O)O)c(CCCOc3cccc4cc(F)ccc34)c3ccc(Cl)c-2c31 (racemic) [Example 60] : value?
18

Fill in the recorded EC50 for this molecule, with SUDHL5 as test system: CCc1c2c(nn1C)C(CCN1CCOCC1)N(C)S(=O)(=O)CCCn1c(C(=O)O)c(CCCOc3cccc4cc(F)ccc34)c3ccc(Cl)c-2c31 (racemic) [Example 73]
23

* * *

Lab note: IC50 readings collected with SUDHL5 for the following molecules.
State just the number; it will be interpreted in nM.

>>> endpoint_result("CCc1c2c(nn1C)C(CCN1CCOCC1)N(C)S(=O)(=O)CCCn1c(C(=O)O)c(CCCOc3cccc4cc(F)ccc34)c3ccc(Cl)c-2c31 (single isomer, unassigned) [Example 72]")
8.7
>>> endpoint_result("CCc1c2c(nn1C)C(CCN1CCOCC1)N(C)S(=O)(=O)CCCn1c(C(=O)O)c(CCCOc3cccc4cc(F)ccc34)c3ccc(Cl)c-2c31 (racemic) [Example 73]")
20

# input for lookup
Quick check: IC50 of CCc1c2c(nn1C)C(CCN1CCOCC1)N(C)S(=O)(=O)CCCn1c(C(=O)O)c(CCCOc3cccc4cc(F)ccc34)c3ccc(Cl)c-2c31 (racemic) [Example 74] ?
13

Just for reference, patent US11401278B2 is where these values come from.
